- Test system: CN0375-F725-PDC KRAS spheroid viability
- Measurement Protocol: Anticancer human tumor CN0375-F725-PDC patient-derived colon carcinoma cell line growth inhibition [KRAS2]
- Conditions Used: curve of first compound; second compound 10 µM; spheroids with HUVEC and MSC
pIC50: −log10 of the molar value.
Below, each of the compounds is paired with its reported pIC50 value.

These solved cases illustrate the format of a correct answer.
Compound	pIC50
COc1cc2nccc(Oc3ccc(NC(=O)C4(C(=O)Nc5ccc(F)cc5)CC4)cc3)c2cc1OC + COc1cc2nc(C)nc(NC(C)c3cc(N)cc(C(F)(F)F)c3)c2cc1OC1CCOC1	> 7.50
COc1cc(Nc2ncc3c(n2)-c2ccc(Cl)cc2C(c2c(F)cccc2OC)=NC3)ccc1C(=O)O + CC1OCC2(CCN(c3cnc(Sc4ccnc(N)c4Cl)c(N)n3)CC2)C1N	< 5.00

Consider the record given below.
Fill in the blank: the reported pIC50 of CC(C)n1nc(-c2ccc3oc(N)nc3c2)c2c(N)ncnc21 + COc1cc2nc(C)nc(NC(C)c3cc(N)cc(C(F)(F)F)c3)c2cc1OC1CCOC1 is ____.
> 9.50

###

- Tested on: CN0375-F725-PDC KRAS spheroid viability
- Measurement Protocol: Anticancer human tumor CN0375-F725-PDC cell line growth inhibition [KRAS2];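 further: spheroids exposed to agents for 7 days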
- Conditions Used: second compound 0.316 µM; first compound 0.00316 µM; stronger effect = lower value; spheroids with HUVEC and MSC
Measurement Name: viability, T/C

Fill in the blank: the reported viability, T/C of CN(C)C/C=C/C(=O)Nc1cc2c(Nc3ccc(F)c(Cl)c3)ncnc2cc1O[C@H]1CCOC1 + CNCc1ccccc1-c1csc(C(C)Nc2nc(C)nc3cc(OC)c(OC)cc23)c1 is ____.
78.3%

Fill in the blank: the reported viability, T/C of Cn1ncnc1[C@H]1c2n[nH]c(=O)c3cc(F)cc(c23)N[C@@H]1c1ccc(F)cc1 + C=CC(=O)N1CCN(c2nc(=O)n(-c3c(C)ccnc3C(C)C)c3nc(-c4c(O)cccc4F)c(F)cc23)C(C)C1 is ____.
104%

Fill in the blank: the reported viability, T/C of CC(=O)Nc1cccc(-n2c(=O)n(C3CC3)c(=O)c3c(Nc4ccc(I)cc4F)n(C)c(=O)c(C)c32)c1 + CC1OCC2(CCN(c3cnc(Sc4ccnc(N)c4Cl)c(N)n3)CC2)C1N is ____.
44.9%

Fill in the blank: the reported viability, T/C of CC(C)n1nc(-c2ccc3oc(N)nc3c2)c2c(N)ncnc21 + C=CC(=O)N1CCN(c2nc(OCC3CCCN3C)nc3c2CCN(c2cccc4cccc(C)c24)C3)CC1CC#N is ____.
78.3%

###

Below, each of the molecules is paired with its reported pIC50 value.
- Test system: CN0375-F725-PDC KRAS spheroid viability
- Measurement Protocol: Anticancer human tumor CN0375-F725-PDC cell line growth inhibition [KRAS2];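 further: spheroids exposed to agents for 7 days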
- Conditions Used: curve of first compound; second compound 10 µM; spheroids with HUVEC and MSC
pIC50: −log10 of the molar value.

Molecule	pIC50
COc1cc(Nc2ncc3c(n2)-c2ccc(Cl)cc2C(c2c(F)cccc2OC)=NC3)ccc1C(=O)O + CNCc1ccccc1-c1csc(C(C)Nc2nc(C)nc3cc(OC)c(OC)cc23)c1	> 7.50

For CN0375-F725-PDC KRAS spheroid viability, provide pIC50 of CC(=O)OC12COC1CC(O)C1(C)C(=O)C(O)C3=C(C)C(OC(=O)C(O)C(NC(=O)OC(C)(C)C)c4ccccc4)CC(O)(C(OC(=O)c4ccccc4)C21)C3(C)C (stereo not given) + C=CC(=O)N1CCN(c2nc(=O)n(-c3c(C)ccnc3C(C)C)c3nc(-c4c(O)cccc4F)c(F)cc23)C(C)C1 please.
< 5.50

For CN0375-F725-PDC KRAS spheroid viability, provide pIC50 of CCN1CCN(Cc2ccc(Nc3ncc(F)c(-c4cc(F)c5nc(C)n(C(C)C)c5c4)n3)nc2)CC1 + CC1OCC2(CCN(c3cnc(Sc4ccnc(N)c4Cl)c(N)n3)CC2)C1N please.
< 6.00

For CN0375-F725-PDC KRAS spheroid viability, provide pIC50 of COc1cc(Nc2ncc3c(n2)-c2ccc(Cl)cc2C(c2c(F)cccc2OC)=NC3)ccc1C(=O)O + COc1cc2nc(C)nc(NC(C)c3cc(N)cc(C(F)(F)F)c3)c2cc1OC1CCOC1 please.
> 7.50

For CN0375-F725-PDC KRAS spheroid viability, provide pIC50 of CC1COCCN1c1cc(-c2ccnn2C)c2ccnc(-c3ccn[nH]3)c2n1 (stereo not given) + COc1cc2nc(C)nc(NC(C)c3cc(N)cc(C(F)(F)F)c3)c2cc1OC1CCOC1 please.
> 8.00

###

Below, each of the molecules is paired with its reported viability, T/C value.
- System: CN0375-F725-PDC KRAS spheroid viability
- Measurement Protocol: Anticancer human tumor CN0375-F725-PDC cell line growth inhibition [KRAS2];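 further: spheroids exposed to agents for 7 days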
- Conditions Used: second compound 1 µM; first compound 0.01 µM; stronger effect = lower value; spheroids with HUVEC and MSC
Enter your answer as a number in %; do not include the unit.

These solved cases illustrate the format of a correct answer.
Molecule	Tgt	viability, T/C [%]
CC(C)n1nc(-c2ccc3oc(N)nc3c2)c2c(N)ncnc21 + C=CC(=O)N1CCN(c2nc(OCC3CCCN3C)nc3c2CCN(c2cccc4cccc(C)c24)C3)CC1CC#N	CN0375-F725-PDC KRAS spheroid viability	60
CC1COCCN1c1cc(-c2ccnn2C)c2ccnc(-c3ccn[nH]3)c2n1 (stereo not given) + C=CC(=O)N1CCN(c2nc(OCC3CCCN3C)nc3c2CCN(c2cccc4cccc(C)c24)C3)CC1CC#N	CN0375-F725-PDC KRAS spheroid viability	88.1
CC(=O)Nc1cccc(-n2c(=O)n(C3CC3)c(=O)c3c(Nc4ccc(I)cc4F)n(C)c(=O)c(C)c32)c1 + COc1cc2nc(C)nc(NC(C)c3cc(N)cc(C(F)(F)F)c3)c2cc1OC1CCOC1	CN0375-F725-PDC KRAS spheroid viability	38.4
CC(=O)OC12COC1CC(O)C1(C)C(=O)C(O)C3=C(C)C(OC(=O)C(O)C(NC(=O)OC(C)(C)C)c4ccccc4)CC(O)(C(OC(=O)c4ccccc4)C21)C3(C)C (stereo not given) + COc1cc2nc(C)nc(NC(C)c3cc(N)cc(C(F)(F)F)c3)c2cc1OC1CCOC1	CN0375-F725-PDC KRAS spheroid viability	89.8
CC(=O)OC12COC1CC(O)C1(C)C(=O)C(O)C3=C(C)C(OC(=O)C(O)C(NC(=O)OC(C)(C)C)c4ccccc4)CC(O)(C(OC(=O)c4ccccc4)C21)C3(C)C (stereo not given) + CC1OCC2(CCN(c3cnc(Sc4ccnc(N)c4Cl)c(N)n3)CC2)C1N	CN0375-F725-PDC KRAS spheroid viability	95.6

For CN0375-F725-PDC KRAS spheroid viability, provide viability, T/C of CC(=O)OC12COC1CC(O)C1(C)C(=O)C(O)C3=C(C)C(OC(=O)C(O)C(NC(=O)OC(C)(C)C)c4ccccc4)CC(O)(C(OC(=O)c4ccccc4)C21)C3(C)C (stereo not given) + C=CC(=O)N1CCN(c2nc(=O)n(-c3c(C)ccnc3C(C)C)c3nc(-c4c(O)cccc4F)c(F)cc23)C(C)C1 please.
96.6

For CN0375-F725-PDC KRAS spheroid viability, provide viability, T/C of CC(=O)Nc1cccc(-n2c(=O)n(C3CC3)c(=O)c3c(Nc4ccc(I)cc4F)n(C)c(=O)c(C)c32)c1 + CC1OCC2(CCN(c3cnc(Sc4ccnc(N)c4Cl)c(N)n3)CC2)C1N please.
35

For CN0375-F725-PDC KRAS spheroid viability, provide viability, T/C of CC(=O)OC12COC1CC(O)C1(C)C(=O)C(O)C3=C(C)C(OC(=O)C(O)C(NC(=O)OC(C)(C)C)c4ccccc4)CC(O)(C(OC(=O)c4ccccc4)C21)C3(C)C (stereo not given) + C=CC(=O)N1CCN(c2nc(OCC3CCCN3C)nc3c2CCN(c2cccc4cccc(C)c24)C3)CC1CC#N please.
96.7

For CN0375-F725-PDC KRAS spheroid viability, provide viability, T/C of Cn1ncnc1[C@H]1c2n[nH]c(=O)c3cc(F)cc(c23)N[C@@H]1c1ccc(F)cc1 + CNCc1ccccc1-c1csc(C(C)Nc2nc(C)nc3cc(OC)c(OC)cc23)c1 please.
41.5

For CN0375-F725-PDC KRAS spheroid viability, provide viability, T/C of CN(C)C/C=C/C(=O)Nc1cc2c(Nc3ccc(F)c(Cl)c3)ncnc2cc1O[C@H]1CCOC1 + CNCc1ccccc1-c1csc(C(C)Nc2nc(C)nc3cc(OC)c(OC)cc23)c1 please.
54.8

###

- Tested on: CN0375-F725-PDC KRAS spheroid viability
- Measurement Protocol: Anticancer human tumor CN0375-F725-PDC cell line growth inhibition [KRAS2];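 further: spheroids exposed to agents for 7 days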
- Conditions Used: second compound 3.16 µM; first compound 0.0316 µM; stronger effect = lower value; spheroids with HUVEC and MSC
Label true when viability, T/C is strictly below 80%; at or above that, label false.

Compound	Assigned Label
CC1OCC2(CCN(c3cnc(Sc4ccnc(N)c4Cl)c(N)n3)CC2)C1N (stereo unspecified) + CNCc1ccccc1-c1csc(C(C)Nc2nc(C)nc3cc(OC)c(OC)cc23)c1	true
COC(=O)c1ccc2c(C(=Nc3ccc(N(C)C(=O)CN4CCN(C)CC4)cc3)c3ccccc3)c(O)[nH]c2c1 + C=CC(=O)N1CCN(c2nc(=O)n(-c3c(C)ccnc3C(C)C)c3nc(-c4c(O)cccc4F)c(F)cc23)C(C)C1	false
COc1cc2nccc(Oc3ccc(NC(=O)C4(C(=O)Nc5ccc(F)cc5)CC4)cc3)c2cc1OC + CNCc1ccccc1-c1csc(C(C)Nc2nc(C)nc3cc(OC)c(OC)cc23)c1	true
CC1(C)CCC(CN2CCN(c3ccc(C(=O)NS(=O)(=O)c4ccc(NCC5CCOCC5)c([N+](=O)[O-])c4)c(Oc4cnc5[nH]ccc5c4)c3)CC2)=C(c2ccc(Cl)cc2)C1 + C=CC(=O)N1CCN(c2nc(=O)n(-c3c(C)ccnc3C(C)C)c3nc(-c4c(O)cccc4F)c(F)cc23)C(C)C1	false
CC1COCCN1c1cc(-c2ccnn2C)c2ccnc(-c3ccn[nH]3)c2n1 (stereo unspecified) + CC1OCC2(CCN(c3cnc(Sc4ccnc(N)c4Cl)c(N)n3)CC2)C1N	true
COc1cc2nccc(Oc3ccc(NC(=O)C4(C(=O)Nc5ccc(F)cc5)CC4)cc3)c2cc1OC + C=CC(=O)N1CCN(c2nc(=O)n(-c3c(C)ccnc3C(C)C)c3nc(-c4c(O)cccc4F)c(F)cc23)C(C)C1	false
COC(=O)c1ccc2c(C(=Nc3ccc(N(C)C(=O)CN4CCN(C)CC4)cc3)c3ccccc3)c(O)[nH]c2c1 + COc1cc2nc(C)nc(NC(C)c3cc(N)cc(C(F)(F)F)c3)c2cc1OC1CCOC1	false
Cn1nccc1Nc1nccc(-c2cc3c(s2)C(C)(C)N(CCN2CCOCC2)C3=O)n1 + C=CC(=O)N1CCN(c2nc(=O)n(-c3c(C)ccnc3C(C)C)c3nc(-c4c(O)cccc4F)c(F)cc23)C(C)C1	false

Dear colleague, could you confirm whether viability, T/C of CC1COCCN1c1cc(-c2ccnn2C)c2ccnc(-c3ccn[nH]3)c2n1 (stereo unspecified) + COc1cc2nc(C)nc(NC(C)c3cc(N)cc(C(F)(F)F)c3)c2cc1OC1CCOC1 falls below 80%? Thanks.
false
